# assay.summary: chemical genetic growth profiling, strain panel (AID 1159580);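 note: tested at 20 µM; growth read once vehicle control cultures reached saturation at 30 °C; lower values mean less growth of the strain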
# experimental.context: S. cerevisiae deletion strains, growth OD, locus YPL106C, strain sse1
The whole screen tested about 5,500 compounds, of which about 2,000 (36%) were called active. Roughly 18% stayed inconclusive and do not appear here. Cut-off read from the data, not from the text of the source: active = normalized growth mostly below about 0.91 (no sharp cut-off); inconclusive = no clear call, values can overlap the other calls; inactive = mostly above about 0.92. The list shows a part of the results. Where a SMILES comes first, the peptide text is derived from it.
I would appreciate it if you answered using one of these outcomes: active, inactive

Outcome logged for COc1ccc(-c2cc(=O)c3c(O)cc(O[C@H]4O[C@H](CO[C@@H]5O[C@@H](C)[C@H](O)[C@@H](O)[C@H]5O)[C@@H](O)[C@H](O)[C@H]4O)cc3o2)cc1 in this assay: inactive

Follow-up entry: COc1cc(OC)c2c(=O)c(O)c(-c3ccc(OC)c(OC)c3)oc2c1 active

What do we get for COC(=O)c1c(C)cc(OC)cc1O ? inactive

And the next one, COC(=O)[C@H](Cc1ccccc1)NC(=O)[C@@H](N)CC(=O)O (H-Asp-Phe-OMe) ? inactive

Now try C[C@@H]1O[C@@H](OC[C@H]2OC(Oc3c(-c4ccc(OCCO)c(OCCO)c4)oc4cc(OCCO)cc(O)c4c3=O)[C@H](O)[C@@H](O)[C@@H]2O)[C@H](O)[C@H](O)[C@H]1O (some centres not stated) . inactive

Param item: COc1ccc(-c2oc3c(CC=C(C)C)c(O[C@@H]4O[C@H](CO)[C@@H](O)[C@H](O)[C@H]4O)cc(O)c3c(=O)c2O[C@@H]2O[C@@H](C)[C@H](O)[C@@H](O)[C@H]2O)cc1 inactive

Now consider CC(CC(O)C1OC1(C)C)[C@@H]1CCC2(C)C3=CCC4C(C)(C)C(=O)CCC4(C)C3CC[C@@]12C (some centres not stated) . inactive
